Quick list: Ki per entry.
# assayTarget: FKBP51FK1 (Homo sapiens)
# Construct: FKBP51FK1
# Sequence (Q13451 42-130 limits assumed): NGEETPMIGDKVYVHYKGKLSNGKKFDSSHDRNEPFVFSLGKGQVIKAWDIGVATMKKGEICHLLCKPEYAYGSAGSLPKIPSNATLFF
# experimentalProtocol: Binding affinities of exemplary compounds to FKBP51
# Description: Binding to FKBP51 is an important prerequisite in order to allow degradation of FKBP51. Thus, the binding affinities of the newly synthesized molecules (table 1) were tested.
API: value field is a number in nM; no unit string.

Examples with answers:
[
  {
    "compound": "COc1cccc([C@H](CCc2ccc(OCc3cn(CCOCC(=O)N[C@H](C(=O)N4C[C@H](O)C[C@H]4C(=O)NCc4ccc(-c5scnc5C)cc4)C(C)(C)C)nn3)c(OC)c2)OC(=O)[C@H]2CCCCN2C(=O)[C@H](c2cc(OC)c(OC)c(OC)c2)C2CCCCC2)c1",
    "assayTarget": "FKBP51FK1 (Homo sapiens)",
    "reportedEndpoint": "Ki",
    "valueUnits": "nM",
    "assayValue": 47
  },
  {
    "compound": "COc1ccc(CC[C@@H](OC(=O)[C@@H]2CCCCN2C(=O)[C@H](c2cc(OC)c(OC)c(OC)c2)C2CCCCC2)c2cccc(OCc3cn(CCOCCOCCOCCOCCOCC(=O)Nc4cccc5c4C(=O)N(C4CCC(=O)NC4=O)C5=O)nn3)c2)cc1OC (some centres unmarked)",
    "assayTarget": "FKBP51FK1 (Homo sapiens)",
    "reportedEndpoint": "Ki",
    "valueUnits": "nM",
    "assayValue": 5
  },
  {
    "compound": "COc1cccc([C@@H](CCc2ccc(OCc3cn(CCOCC(=O)Nc4cccc5c4C(=O)N(C4CCC(=O)NC4=O)C5=O)nn3)c(OC)c2)OC(=O)[C@@H]2CCCCN2C(=O)[C@H](c2cc(OC)c(OC)c(OC)c2)C2CCCCC2)c1 (some centres unmarked)",
    "assayTarget": "FKBP51FK1 (Homo sapiens)",
    "reportedEndpoint": "Ki",
    "valueUnits": "nM",
    "assayValue": 22
  },
  {
    "compound": "COc1ccc(CC[C@H](OC(=O)[C@H]2CCCCN2C(=O)[C@H](c2cc(OC)c(OC)c(OC)c2)C2CCCCC2)c2cccc(OCc3cn(CCOCCOCCOCCOCCOCC(=O)N[C@H](C(=O)N4C[C@H](O)C[C@H]4C(=O)NCc4ccc(-c5scnc5C)cc4)C(C)(C)C)nn3)c2)cc1OC",
    "assayTarget": "FKBP51FK1 (Homo sapiens)",
    "reportedEndpoint": "Ki",
    "valueUnits": "nM",
    "assayValue": 12
  }
]

(Q) Fill in: Ki of COc1cccc([C@@H](CCc2ccc(OCc3cn(CCOCCOCCOCCOCC(=O)N[C@H](C(=O)N4C[C@H](O)C[C@H]4C(=O)NCc4ccc(-c5scnc5C)cc4)C(C)(C)C)nn3)c(OC)c2)OC(=O)[C@@H]2CCCCN2C(=O)[C@H](c2cc(OC)c(OC)c(OC)c2)C2CCCCC2)c1 is ___
(A) 59

(Q) Fill in: Ki of C#CCOc1cccc([C@H](CCc2ccc(OC)c(OC)c2)OC(=O)[C@H]2CCCCN2C(=O)[C@H](c2cc(OC)c(OC)c(OC)c2)C2CCCCC2)c1 (stereo in doubt) is ___
(A) 32

(Q) Fill in: Ki of C#CCOc1cc(CCC(OC(=O)C2CCCCN2C(=O)[C@H](c2cc(OC)c(OC)c(OC)c2)C2CCCCC2)c2cccc(OC)c2)ccc1OC (stereo in doubt) is ___
(A) 149

(Q) Fill in: Ki of COc1ccc(CC[C@@H](OC(=O)[C@@H]2CCCCN2C(=O)[C@H](c2cc(OC)c(OC)c(OC)c2)C2CCCCC2)c2cccc(OCc3cn(CCOCCOCCOCC(=O)Nc4cccc5c4C(=O)N(C4CCC(=O)NC4=O)C5=O)nn3)c2)cc1OC (some centres unmarked) is ___
(A) 22

# credit: patent EP3875456A1
